Origin of measurements: patent US9000025B2

target: autotaxin (ATX) (Homo sapiens, UniProt Q13822); construct: conditioned medium from the human melanoma cell line, MDA-MB-4355, which endogenously expresses autotaxin; serum-free conditioned medium, concentrated 20-fold; test: Native Autotaxin Choline Release Assay; conditions: autotaxin in conditioned medium from human melanoma cell line; choline released from LPC; read-out: MDA-MB-435S Assay IC50
pIC50: −log10 of the molar value.
measurement_kind: pIC50

Read off the recorded pIC50 for CCCn1cc(-n2c(C)c(Sc3cccc(CC(=O)O)c3F)c3ccc(Cl)c(F)c32)cn1 > 6.52

Quickly give me recorded pIC50 for Cc1c(Sc2cccc(C(=O)O)c2)c2ccc(Cl)cc2n1-c1cnn(C)c1 > 6.52

Tell me its pIC50 given CCn1cc(-n2c(C)c(Sc3cccc(C(=O)O)c3)c3ccc(Cl)cc32)cn1 as the entry. > 6.52

Give me measured pIC50, please, for this molecule: Cc1c(Oc2cccc(CC#N)c2)c2ccc(Cl)cc2n1Cc1ccccc1 < 6.00

Identify pIC50 associated with the molecule Cc1cncc(-n2c(C)c(Sc3cccc(C(=O)O)c3)c3ccc(Cl)cc32)c1 > 6.52

Please report the measured pIC50 for CCn1cc(-n2c(C)c(Sc3cccc(C(=O)O)c3)c3ccc(Cl)c(C)c32)cn1 > 6.52

Query pIC50 for Cc1c(Sc2ccc(CC(=O)O)cc2)c2ccc(Cl)cc2n1C < 6.00

Hello, please tell me recorded pIC50 for this one: CCOc1ccc(-n2c(C)c(Sc3cccc(C(=O)O)c3)c3ccc(Cl)cc32)cn1 > 6.52
